# Tested on: KM20L2 colon
# procedure text: NCI tumour cell line growth inhibition, 48 h
Reported TGI values for a set of compounds

Worked cases, answers included:
COc1cc(C(=O)C/C(CCC(=O)Nc2ccc(Cl)cc2Cl)=N/NC(=O)C(=O)NN)ccc1O = > 100 µM
CCCCC#CS(=O)(=O)C(F)(F)F = > 100 µM
CCN(CC)CCNC(=O)c1ccc(C)c(OCc2ccccc2)c1[N+](=O)[O-] = 64.5 µM
OCCNCCOc1ccc(/C(=C(/Cl)c2ccccc2)c2ccccc2)cc1 = 8.56 µM
Oc1ccc(Br)cc1C=Nc1ccc(N=Cc2cc(Br)ccc2O)cc1 = > 100 µM
O=[N+]([O-])c1ccc(C2=Nc3ccccc3SC(c3ccccc3)C2)cc1 (configuration not stated) = 32.8 µM
CCCCc1c2c(nc3c1CCC/C3=C\c1ccccc1)/C(=C/c1ccccc1)CCC2 = > 100 µM
N.N.NCCCCCCCCCN.O=C([O-])CC(=O)[O-].O=C([O-])CC(=O)[O-].[Pt+4].[Pt+4] = > 100 µM
C/C(CCn1[nH]c(=O)ccc1=O)=N\OCCCc1ccccc1 = > 100 µM
OCC(O)CNc1ccnc2cc(Cl)ccc12 (configuration not stated) = > 100 µM

input: Give KM20L2 colon TGI for COc1cc(C(=O)N2CCc3c([nH]c4c([N+](=O)[O-])c(OC)ccc34)C2C)cc(OC)c1OC (configuration not stated)
output: > 100 µM

input: Form: Entry = N#CC(C(=O)CCC(=O)Nc1cccc(C(F)(F)F)c1)c1ccc(Cl)cc1 (configuration not stated) | System = KM20L2 colon | TGI = ____
output: > 100 µM

input: Query the reported TGI for KM20L2 colon; item: `[F][Sn]([F])([c]1ccccc1)[c]1ccccc1`
output: 3.39 µM

input: GET /values?readout=TGI&system=KM20L2 colon&item= CC1CN1c1c(C(=O)/C=C/c2ccc(Cl)cc2)c(-c2ccccc2)nn(C)c1=O (configuration not stated)
output: > 10 µM

input: Form entry - test system: KM20L2 colon; read-out: TGI; compound: CC(C)(C)OC(=O)N1N=NC2C1C1CC(OCc3ccccc3)(OCc3ccccc3)C2O1 (configuration not stated)
output: > 100 µM

input: Which TGI is reported with KM20L2 colon for this entry: Cc1cccc(C(C)C)c1NC(=O)C(=O)C(C(=O)c1ccccc1F)C1OC(=O)c2ccccc21 (configuration not stated) ?
output: 76.5 µM

input: Item `CC1=C(c2cc(C(=O)Nc3ccc(Cl)cc3)nc(=S)[nH]2)Sc2ccccc2N1` with KM20L2 colon - TGI?
output: > 100 µM

====

# Test system: HOP-92 NSCLC
# procedure text: NCI tumour cell line growth inhibition, 48 h
measurement kind: GI50

The cases that follow already have their GI50 on record.
CC/C=C/C/C=C/C/C=C/C/C=C/C/C=C/C/C=C/CCC(=O)Nc1ccn([C@@H]2O[C@H](CO)[C@@H](O)C2(F)F)c(=O)n1 = 0.652 µM
Cn1cc(-c2ccc(-c3cncc(Cl)c3N3CCC4(CCNC4=O)CC3)cc2)cn1 = > 100 µM
C[C@]12CC[C@@H]3c4ccc(O)c([N+](=O)[O-])c4CC[C@H]3[C@@H]1CC[C@@H]2NS(=O)(=O)c1cccc(Br)c1 = 1.53 µM
Nc1ccccc1SC1CC(=O)N(c2ccc(Cl)c(Cl)c2)C1=O (stereo not given) = 14.9 µM

input: Find the measured GI50: item `Cn1c(=O)c2c(ncn2CC(=O)Nc2ccc(-c3ccccc3)nn2)n(C)c1=O` , target or system HOP-92 NSCLC.
output: > 100 µM

====

The entries below are paired with their reported TGI.
# Test system: HOP-92 NSCLC
# procedure text: NCI tumour cell line growth inhibition, 48 h
Where a SMILES comes first, the peptide text is derived from it. The star is where a group is joined. Bn = c1ccc(C*)cc1

Worked cases, answers included:
COc1cc(C(=O)C/C(CCC(=O)Nc2ccc(Cl)cc2Cl)=N/NC(=O)C(=O)NN)ccc1O = > 100 µM
Clc1ccc(N=CNc2ccc(-c3nc4ccccc4o3)cc2)cc1 = > 100 µM
O=C(NO)c1ccc(CN(c2cnccn2)c2cnccn2)cc1 = 35.1 µM
CCN1C(=O)N(CC)C2Nn3c(s/c(=C4\C(=O)N(C)c5ccccc54)c3=O)=NC21 (stereo not drawn) = > 100 µM
OC1(c2ccc(Cl)cc2)c2ccc(CN3CCCC3)cc2C2=NCCN21 (stereo not drawn) = 16.1 µM
COC(=O)C(CC(C)C)NC(=O)C(N)Cc1ccc(OCc2ccccc2)cc1 (stereo not drawn) (H-Tyr(Bn)-Leu-OMe; configuration not given here) = > 10 µM
Cc1ncc([N+](=O)[O-])n1CCNS(=O)(=O)CCCn1ncnc1[N+](=O)[O-] = > 100 µM
CC1C(=O)OC2CC[N+]3([O-])CC=C(COC(=O)C(C)(O)C1(C)O)C23 (stereo not drawn) = > 100 µM
COc1ccc(/C=C(/c2ccccc2)[N+](=O)[O-])cc1 = 2.48 µM
C=C1CC[C@@H](C(C)C)C[C@@H]2[C@H]([C@H](O)C[C@]2(C)O)[C@@]2(C)CC[C@@H]1O2 = 20.7 µM

input: TGI for `CN1COCc2cc3cc4c(cc3nc21)OCCO4` ?
output: > 100 µM

input: Please report the recorded TGI for `CCCCC#CS(=O)(=O)C(F)(F)F` .
output: > 84.4 µM

input: Name the reported TGI value associated with the compound `O=C(Nc1ccc(-n2cc(-c3ccncc3)c(-c3ccc(O)c(Cl)c3)n2)cc1)Nc1cccc(Cl)c1Cl`
output: 9.84 µM

input: TGI for `CC(=O)OCCOCNC(=S)N/N=C/c1ccc(Br)s1` ?
output: > 100 µM

====

# Tested on: COLO 205 colon
# procedure text: NCI tumour cell line growth inhibition, 48 h
measurement kind: TGI

Worked set:
CC(C)(C)C(=O)C(Cc1ccccc1)C(=O)C(C)(C)C = > 100 µM
Cc1cccc(C)c1NC(=O)C(=O)CC(=O)c1cccc([N+](=O)[O-])c1 = > 100 µM
CCOC(=O)C(C)c1nc2c(Cl)c3ncccc3cc2[nH]c1=O (stereo unspecified) = > 100 µM
COC(=O)C1(Cc2ccc3c(c2)CCC3)Cc2cc3c(cc2C1)CCC3 = > 100 µM
Nc1nc(N)c2cc(CNc3ccc(C(=O)NC(CC(=O)O)C(=O)O)c(Cl)c3)ccc2n1 (stereo unspecified) = > 500 µM

input: Report TGI for `CCOc1ccccc1NC(=O)C(=O)Cc1nc2ccccc2s1` please.
output: > 100 µM

====

# System: A498 renal
# procedure text: NCI tumour cell line growth inhibition, 48 h
Entries annotated with measured TGI
# output: bare number, implied unit µM

input: Query: TGI; subject: `COc1ccc2c3c(Nc4ccc(/C(C)=N/O)cc4)[nH]c4ccccc4c-3c(N=O)c2c1`
output: 27.2

input: Consider the compound shown here: `O=C1c2cccc(NCCNCCO)c2C(=O)c2cccc(NCCNCCO)c21` What is its recorded TGI?
output: 7.44

input: Return reported TGI; argument: `Cc1cc(C(C)(C)C)cc(Cc2cc(C(C)(C)C)cc(Cc3cc(C(C)(C)C)cc(C)c3O)c2O)c1O`
output: 45.1

input: For the compound `CCCCCCCCCCN1CCC(N2CCCCC2)CC1` , what TGI is on record?
output: 21.7

====

# Tested on: UACC-257 melanoma
# procedure text: NCI tumour cell line growth inhibition, 48 h
In this section, each of the molecules is paired with its reported TGI.
The figure you give is taken to be in µM; do not add the unit.

Worked cases, answers included:
COC(C(=O)[C@@H](O)[C@@H](C)O)[C@@H]1Cc2cc3cc(O[C@H]4C[C@@H](O[C@H]5C[C@@H](O)[C@H](O)C(C)O5)[C@H](O)C(C)O4)c(C)c(O)c3c(O)c2C(=O)[C@H]1O[C@H]1C[C@@H](O[C@H]2C[C@@H](O[C@H]3C[C@@H](O)[C@H](OC)C(C)O3)[C@@H](O)C(C)O2)[C@H](O)C(C)O1 (some centres not stated) = 0.101
O=c1oc2ccc(Br)cc2c(=O)n1-c1ccc(F)cc1F = 6.67

input: Would you mind telling me what TGI value was observed for O=C(c1ccco1)C1CC(c2c(O)ccc3ccccc23)=NN1 (configuration not stated) ?
output: 57.9

input: For CC(=O)OC1C2CCC1C1C2C2(Cl)C(Cl)=C(Cl)C1(Cl)C2(Cl)Cl (configuration not stated) , what is its reported TGI?
output: 27.4

input: Need TGI of `COC1=C(Br)C(=O)c2nc(C)ccc2C1=O` , thanks.
output: 26.6

input: Any idea what TGI was measured for CC(C(=O)n1c2ccccc2c2ccccc21)N(c1ccccc1)c1ccccc1 (configuration not stated) ?
output: 32.3

input: Which measured TGI value corresponds to `O=C([CH-]C(=O)c1ccccc1)c1ccccc1.O=C([CH-]C(=O)c1ccccc1)c1ccccc1.[O]=[U+2]=[O]` ?
output: 35.5
